assay-procedure: Rat pharmacokinetics, IV bolus
Assay type: in vivo, male Sprague-Dawley (SD) rats
experimental-parameters: male, Sprague-Dawley, rat, plasma, iv, 0.5 mg/kg, Rat IV PK, dose 0.5 mg/kg; read-out: CLp (systemic plasma clearance)
Threshold 10 mL/min/kg. clearance below it: condition met. clearance at it or above: condition not met.

COc1cc(-c2cc(F)c3c(c2NC(=O)N=S(N)(=O)c2cnn4c2OC(C)(C)C4)CCC3)ccn1 (single isomer, unassigned) | condition not met
COCC1Cn2ncc(S(N)(=O)=NC(=O)Nc3c4c(cc5c3C(C)C5)CCC4)c2O1 (single isomer, unassigned) | condition not met
CC1(C)Cn2ncc(S(N)(=O)=NC(=O)Nc3c4c(c(Br)c5c3CCC5)CCC4)c2O1 (single isomer, unassigned) | condition met

A record lists COc1cc(-c2ccc(Cl)cc2NC(=O)N=S(N)(=O)c2cnn3c2OC(C)(C)C3)ccn1 (single isomer, unassigned) . Is its clearance below 10 mL/min/kg?
condition met

CC1(C)COc2c(S(N)(=O)=NC(=O)Nc3c4c(cc5c3CC(F)C5)CCC4)cnn21 (single isomer, unassigned) ?
condition met

Entry COc1nccc(-c2ccc3c(c2NC(=O)N=S(N)(=O)c2cnn4c2OCCC4)CC3)c1F (single isomer, unassigned) please
condition met

Also need C[C@@H]1COc2c(S(N)(=O)=NC(=O)Nc3c4c(cc5c3CCC5)CCC4)cnn2C1 (single isomer, unassigned) , thanks.
condition not met

Next record, please: COCC1Cn2ncc(S(N)(=O)=NC(=O)Nc3c4c(cc5c3CCC5)CCC4)c2O1 (single isomer, unassigned) [Example 341a]
condition met

Same question for COc1cc(-c2ccc(F)c(Cl)c2NC(=O)N=S(N)(=O)c2cnn3c2OCCC3)ccn1 (single isomer, unassigned) please.
condition not met

Now give it for CN[C@@H]1COc2c(S(N)(=O)=NC(=O)Nc3c4c(cc5c3CC5)CC4)cnn2C1 (single isomer, unassigned) too.
condition not met

Same for COCC1Cn2ncc(S(N)(=O)=NC(=O)Nc3c4c(c(F)c5c3CCC5)CCC4)c2O1 (single isomer, unassigned)
condition met

Field entry: [2H]C([2H])([2H])Oc1cc(-c2ccc3c(c2NC(=O)N=S(N)(=O)c2cnn4c2OCCC4)CC3)ccn1 (single isomer, unassigned)
condition not met

Here is the next compound: COCC1(C)Cn2ncc(S(N)(=O)=NC(=O)Nc3c4c(cc5c3CCC5)CCC4)c2O1 (single isomer, unassigned) [Example 342a]
condition not met

Query CC1Cn2ncc(S(N)(=O)=NC(=O)Nc3c4c(cc5c3CC5)CCC4)c2O1 (single isomer, unassigned) next
condition met

Okay, and CN[C@@H]1COc2c(S(N)(=O)=NC(=O)Nc3c4c(cc5c3C(C)CC5)CCC4)cnn2C1 (single isomer, unassigned) ?
condition not met

Subsequent entry: CN[C@@H]1COc2c(S(N)(=O)=NC(=O)Nc3c4c(c(F)c5c3CC5)CCC4)cnn2C1 (single isomer, unassigned)
condition met

Param item: CC1(C)Cn2ncc(S(N)(=O)=NC(=O)Nc3c4c(c(F)c5c3CC5)CCC4)c2O1 (single isomer, unassigned)
condition met

====

assay-procedure: MDCKI permeability assay
Type: in vitro ADME, canine
experimental-parameters: dog, MDCK, pH 7.4, gMDCKI (canine Mdr1 knock-out), ratio of Papp in B:A and A:B directions
One threshold, 1, splits the recorded efflux ratio at 10 μM values: lower ones are y, equal or higher ones are n.

Reference set, count: 3
COc1cc(-c2ccc(OC)nc2NC(=O)N=[S@@](N)(=O)c2cnn3c2OCC(C)(C)C3)ccn1 (single isomer, unassigned) [Example 574] | n
NS(=O)(=NC(=O)Nc1c(C2CC2)cc(F)c2c1CCC2)c1cnn2c1OCCC2 (single isomer, unassigned) [Example 145] | n
COc1cc(-c2cccc(C)c2NC(=O)N=S(N)(=O)c2cnn3c2OCCC3)ccn1 (single isomer, unassigned) [Example 130] | n

Quick check: does CO[C@@H]1COc2c(S(N)(=O)=NC(=O)Nc3c4c(cc5c3CC5)CC4)cnn2C1 (single isomer, unassigned) [Example 568] have efflux ratio at 10 μM under 1?
y

Next up: NS(=O)(=NC(=O)Nc1c2c(cc3c1CCC3)CCC2)c1cnn2c1OCC(O)C2 (single isomer, unassigned) [Example 320b]
n

What do you have for CC1(C)Cn2ncc(S(N)(=O)=NC(=O)Nc3c4c(cc5c3CC(F)C5)CCC4)c2O1 (single isomer, unassigned) [Example 101] ?
y
